assay: BET inhibitor-based combinations targeting novel dependencies in MECOM-rearranged (r) AML: HNT-34 cell line (AID 2202234); conditions: HNT-34 AML viability, CellTiter-Glo luminescence, 48 h; series mostly up to 46 µM; also: nearly all actives have a fitted effect of over 35% in size
Inconclusive results are not listed. Calls of active or inactive are those of the source. Calls follow the shape of the dose curve; as a rule, active = well fitted inhibition curve with a large enough effect; inconclusive = small, poorly fitted or top-dose-only effect; inactive = no such curve, though single readings can be large or run the other way.
Bench note: report the call from active, inactive

Compound | Class Label
O=C(O)CCCc1c[nH]c2ccccc12 | inactive

Called result for CN(C)CCc1c[nH]c2ccc(CS(=O)(=O)N3CCCC3)cc12
inactive

Same read-out for Cc1nnc(NS(=O)(=O)c2ccc(N)cc2)s1 ?
inactive

Quick one: Cn1cc(-c2ccc(S(=O)(=O)n3ccc(/C=C/C(=O)Nc4ccccc4N)c3)cc2)cn1
active

====

target: Cellular tumor antigen p53 (Homo sapiens) (UniProt P04637); assay: Primary qHTS for small molecule compounds that upregulate eGFP-tagged delta133p53alpha (in N-terminal) cells. (AID 2060322); details: NCI-H358 eGFP-delta133p53alpha fluorescence, 24 h; also: nearly all actives have a fitted effect of over 75% in size; also: potency is read from the fitted curve at half-maximal effect;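 as to activation: cells pre-induced with doxycycline then dosed without doxycycline; 0% = DMSO vehicle and 100% = reference activator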
Sequence (P04637 whole entry, looked up): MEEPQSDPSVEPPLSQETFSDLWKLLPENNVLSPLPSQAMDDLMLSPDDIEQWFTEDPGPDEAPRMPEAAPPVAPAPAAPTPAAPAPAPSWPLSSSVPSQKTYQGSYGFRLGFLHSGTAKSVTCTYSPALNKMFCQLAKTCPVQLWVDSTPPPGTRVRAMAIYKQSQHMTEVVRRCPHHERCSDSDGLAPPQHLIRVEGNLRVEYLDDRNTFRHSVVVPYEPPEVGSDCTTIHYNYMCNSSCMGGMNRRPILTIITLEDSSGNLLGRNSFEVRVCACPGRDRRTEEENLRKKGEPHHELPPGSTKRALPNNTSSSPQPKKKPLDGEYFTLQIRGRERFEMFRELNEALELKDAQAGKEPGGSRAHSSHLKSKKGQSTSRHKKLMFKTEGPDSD
Records with an inconclusive call do not appear. Activity calls are given as the source filed them. Calls come from the whole dose curve; as a rule, active = well fitted activation curve with a large enough effect; inconclusive = small, poorly fitted or top-dose-only effect; inactive = no such curve, though single readings can be large or run the other way.
Endpoint: Potency

Smiles Str | Test Target | Potency
COc1cc2c(NC3CCN(CC4CCCCC4)CC3)nc(N3CCCN(C(C)C)CC3)nc2cc1OCCCN1CCCCC1 | Cellular tumor antigen p53 (Homo sapiens) (UniProt P04637) | 43.2 µM (active)
Cc1cc(NC(=O)c2cccc(NC(=O)/C=C/CN(C)C)c2)ccc1Nc1nccc(-c2cccnc2)n1 | Cellular tumor antigen p53 (Homo sapiens) (UniProt P04637) | 26.9 µM (active)
CC1(C)CCC(c2ccc(Cl)cc2)=C(CN2CCN(c3ccc(C(=O)NS(=O)(=O)c4ccc(N[C@H](CCN5CCOCC5)CSc5ccccc5)c(S(=O)(=O)C(F)(F)F)c4)cc3)CC2)C1 | Cellular tumor antigen p53 (Homo sapiens) (UniProt P04637) | 26.9 µM (active)
Cc1[nH]c(/C=C2\C(=O)Nc3ccc(F)cc32)c(C)c1C(=O)NCCN1CCCC1 | Cellular tumor antigen p53 (Homo sapiens) (UniProt P04637) | 2.69 µM (active)
CCN1/C(=C/C=C/c2sc3ccccc3[n+]2CC)Sc2ccccc21 | Cellular tumor antigen p53 (Homo sapiens) (UniProt P04637) | 16.9 µM (active)
CC[C@H](C)/C=C(C)/C=C/C1=CC2=C(Cl)C(=O)[C@](C)(O)[C@H](OC(C)=O)[C@H]2CO1 | Cellular tumor antigen p53 (Homo sapiens) (UniProt P04637) | 14.8 µM (active)
CC[C@H](c1ccc(O)cc1)[C@@H](CC)c1ccc(O)cc1 | Cellular tumor antigen p53 (Homo sapiens) (UniProt P04637) | 12.3 µM (active)

Now consider a different compound.
Name the recorded Potency for N#Cc1ccc(O[C@@H]2c3ccccc3C[C@H]2N2CCC[C@@H](N)C2)c(Cl)c1 .
30.1 µM (active)

====

target: Cellular tumor antigen p53 (Homo sapiens) (UniProt P04637); experiment: Primary qHTS for small molecule compounds that upregulate eGFP-tagged delta133p53alpha (in N-terminal) cells. (AID 2060322); details: NCI-H358 eGFP-delta133p53alpha fluorescence, 24 h; active compounds read high; also: nearly all actives have a fitted effect of over 75% in size;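 as to activation: cells pre-induced with doxycycline then dosed without doxycycline; 0% = DMSO vehicle and 100% = reference activator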
Inconclusive results are not listed.
// reported activation per item
Your answer should be a plain number; it is taken to be in %.

Compound | Units | activation
O=C(Cn1ccnc1[N+](=O)[O-])NCc1ccccc1 | % | -10.9
CC(=O)OCC1OC(O[C@H]2CC[C@@]3(C)C(CC[C@]4(C)C3CC=C3[C@@H]5CC(C)(C)CC[C@]5(C(=O)O)CC[C@]34C)[C@]2(C)CO)C(O)C(O)C1OC1OC(C)C(O)C(OC2OCC(O)C(O)C2O)C1O (stereo partly drawn) | % | -6.11
CC(C)c1c(O)ccc2c1CC[C@H]1C(C)(C)CCC[C@]21C | % | 25.9

If you can, please state the reported activation value of C[C@@H]1O[C@@H](O[C@H]2[C@H](O)[C@@H](O)[C@H](OC(=O)[C@]34CCC(C)(C)C[C@H]3C3=CCC5[C@@]6(C)CC[C@H](O[C@@H]7O[C@H](C(=O)O)[C@@H](O)[C@H](O)[C@H]7O)C(C)(C)C6CC[C@@]5(C)[C@]3(C)CC4)O[C@@H]2CO)[C@H](O)[C@H](O)[C@H]1O (stereo partly drawn) .
-9.16

Here is the next compound: CC12CCC(=O)C=C1C(O)CC1C2C(O)CC2(C)C1CC[C@]2(O)C(=O)CO (stereo partly drawn)
5.67

Subsequent entry: C=C1C(O)C(OC(=O)c2ccccc2)C2C(C)(C(=O)O)CCCC2(C)C1CC/C(C)=C\CO (stereo not drawn)
11.5

// query: CC1(C)CCC(C)(C)c2cc([C@@H](O)C(=O)Nc3ccc(C(=O)O)cc3F)ccc21
-4.77

Cool, now CC(C(O)/C=C/C(C)(C)O)C1CCC2(C)C3C(=O)C=C4C(CCC(O)C4(C)C)C3(C)CCC12C (stereo not drawn)
-22.3

====

test: BET inhibitor-based combinations targeting novel dependencies in MECOM-rearranged (r) AML: AML-191 cell line (AID 2202236; also: nearly all actives have a fitted effect of over 35% in size); conditions: AML-191 viability, CellTiter-Glo luminescence, 48 h; series mostly up to 46 µM
Results filed as inconclusive are left out. Activity calls are given as the source filed them. The call rests on the fitted dose curve; in most records, active means well fitted inhibition curve with a large enough effect; inconclusive means small, poorly fitted or top-dose-only effect; inactive means flat fitted curve, though single readings scatter.
// one of active, inactive, no free text

Smiles Str | Class Label
CN1C(C(=O)Nc2ccccn2)=C(O)c2sc(Cl)cc2S1(=O)=O | inactive
Cc1cc(O)c2c(c1)C(=O)c1cc(O)cc(O)c1C2=O | active
CCc1cc(C(N)=S)ccn1 | inactive
O=C(O)c1cc(O)c2c(c1)C(=O)c1cccc(O)c1C2=O | inactive
c1cc(Nc2cc(C3CC3)[nH]n2)nc(Nc2ccc3nc[nH]c3c2)n1 | active

Write down the call the test reported for this compound. Item: O=C(/C=C/c1cccc(S(=O)(=O)Nc2ccccc2)c1)NO
active

Same question, Clc1ccc(C2(c3ccc(-c4cn[nH]c4)cc3)CCNCC2)cc1 this time
active

And what about the compound CC(C)(CNC(=O)c1cccc(-c2noc(C(F)(F)F)n2)c1)c1coc(-c2ccccc2)n1 ?
active

====

Molecular target: Cellular tumor antigen p53 (Homo sapiens)
Assay: Primary qHTS for small molecule compounds that upregulate eGFP-tagged delta133p53alpha (in N-terminal) cells. (AID 2060322); also: nearly all actives have a fitted effect of over 75% in size; also: potency is read from the fitted curve at half-maximal effect;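 as to activation: cells pre-induced with doxycycline then dosed without doxycycline; 0% = DMSO vehicle and 100% = reference activator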
Conditions: NCI-H358 eGFP-delta133p53alpha fluorescence, 24 h
Source text: Assay Development and Screening Technology National Center for Advancing Translational Sciences (NCATS), National Institute of Health (NIH), Rockville, Maryland Cellular senescence (CS) is one of the hallmarks of aging and age-related diseases. […] Here we report the development and validation of a cell-based quantitative high throughput screening (qHTS) assay in 1,536-well format. […]
Records with an inconclusive call do not appear. Calls of active or inactive are those of the source. Calls come from the whole dose curve; as a rule, active = well fitted activation curve with a large enough effect; inconclusive = small, poorly fitted or top-dose-only effect; inactive = no such curve, though single readings can be large or run the other way.
The reader will find reported Potency values listed item by item below.

Would you please look over these solved cases?
Compound | Potency
CO[C@@H]1C(N(C)C(=O)c2ccccc2)C[C@H]2O[C@]1(C)n1c3ccccc3c3c4c(c5c6ccccc6n2c5c31)C(=O)NC4=O (some centres undefined) | 9.68 µM (active)
C=C(C(=O)O[C@H]1C/C(C)=C/CC/C(CO)=C/[C@H]2OC(=O)C(=C)[C@H]12)C(O)CO (some centres undefined) | 18.6 µM (active)
C[C@@H]1C[C@@H]2O[C@H]2/C=C\C=C\C(=O)Cc2c(Cl)c(O)cc(O)c2C(=O)O1 | 14.8 µM (active)
CC1CCCC[C@H]2C(=O)C=C[C@H](O)[C@@H]2CC(=O)O1 (some centres undefined) | 23.9 µM (active)

Find the recorded Potency belonging to Oc1ccc(/C=C/c2ccc(/C=C/c3ccc(O)cc3)c(Br)c2)cc1 and report it.
3.38 µM (active)

And for Cc1ccccc1C(=O)Nc1ccc(C(=O)N2CCCC(N(C)C)c3ccccc32)cc1 (centres undefined) ?
3.89 µM (active)

Lookup COc1cccc2c1C(=O)c1c(O)c3c(c(O)c1C2=O)C[C@@](O)(C(=O)CO)C[C@@H]3O[C@H]1C[C@H](N)[C@H](O)[C@H](C)O1
12.3 µM (active)

For CC(=O)OC1[C@H]2[C@@H](C[C@@H](C)[C@@H]3C=CC(=O)[C@@]13C)OC(=O)[C@@H]2C (some centres undefined) then?
21.3 µM (active)

CCCCC(CC)CN=C(N)NC(N)=NCCCCCCN=C(N)NC(N)=NCC(CC)CCCC (centres undefined) , same question.
13.8 µM (active)

====

experiment: BET inhibitor-based combinations targeting novel dependencies in MECOM-rearranged (r) AML: HNT-34 cell line (AID 2202234); details: HNT-34 AML viability, CellTiter-Glo luminescence, 48 h; series mostly up to 46 µM; also: nearly all actives have a fitted effect of over 35% in size;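 as to viability (% of control): plate controls were vehicle wells for no effect and cell-free wells for full effect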
Results filed as inconclusive are left out. Activity calls are given as the source filed them. Calls come from the whole dose curve; as a rule, active = well fitted inhibition curve with a large enough effect; inconclusive = small, poorly fitted or top-dose-only effect; inactive = no such curve, though single readings can be large or run the other way.
Endpoint: viability (% of control)

Known viability (% of control) results, listed for orientation:
Molecule | Result
COc1c(C)cc(NC(=O)c2nn(Cc3ccc(F)cc3)c3c2CN(C(=O)c2ccc[nH]2)C[C@]3(C)C(N)=O)cc1C | 105% [at 8.46 µM] (inactive)
CC1CCC(n2c3cnccc3c3cnc(Nc4ccc5c(n4)CCN(C(=O)CO)C5)nc32)CC1 (centres undefined) | 92.3% [at 8.46 µM] (inactive)
Cn1c(CNc2ccc(C(=N)N)cc2)nc2cc(C(=O)N(CCC(=O)O)c3ccccn3)ccc21 | 104% [at 0.315 µM] (inactive)

Lab note: next molecule to report on.
Using the record for O=P(O)(O)C(O)(Cn1ccnc1)P(=O)(O)O , report its viability (% of control).
108% [at 5.12 µM] (inactive)
